# Tested on: NCI-H1703;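 also: growth inhibition of NCI-H1703 cells, read out via a cell viability assay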
# test-description: cells
# Type: functional, cell-based, Homo sapiens
# test-context: Homo sapiens, NCI-H1703
# Description: SANGER: Inhibition of human NCI-H1703 cell growth in a cell viability assay.
pIC50: −log10 of the molar value.
Let's look at some compounds and their measured pIC50.

Solved cases (2 shown):
compound	pIC50
N#Cc1c(O)c2c(-c3ccc(-c4ccccc4O)cc3)csc2[nH]c1=O	< 5.99
Nc1cccc2c1CN(C1CCC(=O)NC1=O)C2=O (stereo not drawn) [LENALIDOMIDE]	< 5.30

So, CS(=O)(=O)c1ccc(C(=O)Nc2ccc(Cl)c(-c3ccccn3)c2)c(Cl)c1 ? Its pIC50 was < 5.00

----------
# Tested on: NCI-H661;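 also: cell viability assay read-out, IC50 being the concentration that inhibits growth of the cells by half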
# test-description: cells
# Format: functional, cell-based, Homo sapiens
# test-context: Homo sapiens, NCI-H661
# Description: SANGER: Inhibition of human NCI-H661 cell growth in a cell viability assay.
pIC50: −log10 of the molar value.
assay-metric: pIC50

Solved cases (2 shown):
compound	pIC50
N#Cc1c(O)c2c(-c3ccc(-c4ccccc4O)cc3)csc2[nH]c1=O	< 5.99
CC(C)CCN1c2nc(Nc3cc(F)c(O)c(F)c3)ncc2N(C)C(=O)C1C (stereo not drawn)	< 5.30

So, C=C(c1ccc(C(=O)O)cc1)c1cc2c(cc1C)C(C)(C)CCC2(C)C [BEXAROTENE] ? Its pIC50 was < 5.10

----------
# Tested on: HCC 2998;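 also: growth inhibition of human HCC2998 cells, measured with a cell viability read-out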
# test-description: cells
# Assay type: functional, cell-based, Homo sapiens
# test-context: Homo sapiens, HCC 2998
# Description: SANGER: Inhibition of human HCC2998 cell growth in a cell viability assay.
assay-metric: IC50

Solved cases (2 shown):
compound	IC50
Nc1cccc2c1CN(C1CCC(=O)NC1=O)C2=O (stereo not drawn) [LENALIDOMIDE]	> 5 µM
Oc1ccc2ccccc2c1SSc1c(O)ccc2ccccc12	> 32 µM

Turning to the following compound.
So, CCC/C=C/C=C/C(=O)O[C@H]1/C(=C/C(=O)OC)C[C@H]2C[C@H]([C@@H](C)O)OC(=O)C[C@H](O)C[C@@H]3C[C@H](OC(C)=O)C(C)(C)[C@](O)(C[C@@H]4C/C(=C/C(=O)OC)C[C@H](/C=C/C(C)(C)[C@]1(O)O2)O4)O3 ? Its IC50 was > 0.008 µM

----------
Let's look at some compounds and their measured IC50.
# System: HEL;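 also: growth inhibition of HEL cells, read out with a cell viability assay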
# test-description: cells
# Assay type: functional, cell-based, Homo sapiens
# test-context: Homo sapiens, HEL
# Description: SANGER: Inhibition of human HEL cell growth in a cell viability assay.

Cc1cn(-c2cc(NC(=O)c3ccc(C)c(Nc4nccc(-c5cccnc5)n4)c3)cc(C(F)(F)F)c2)cn1 > 2 µM
COc1cc2c(Nc3ccc(NC(=O)c4ccccc4)cc3)ncnc2cc1OCCCN1CCOCC1 > 4 µM

So, Cn1cnc2c(F)c(Nc3ccc(Br)cc3Cl)c(C(=O)NOCCO)cc21 ? Its IC50 was > 4 µM

----------
# Test system: Calu-3;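 also: growth inhibition of human Calu-3 cells, determined with a cell viability assay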
# test-description: cells
# Assay type: functional, cell-based, Homo sapiens
# test-context: Homo sapiens, Calu-3
# Description: SANGER: Inhibition of human Calu-3 cell growth in a cell viability assay.
assay-metric: IC50

compound	IC50
CCN(CC)CCCCNc1ncc2cc(-c3cc(OC)cc(OC)c3)c(NC(=O)NC(C)(C)C)nc2n1	> 2 µM
N#Cc1c(O)c2c(-c3ccc(-c4ccccc4O)cc3)csc2[nH]c1=O	> 1.02 µM
Nc1cccc2c1CN(C1CCC(=O)NC1=O)C2=O (centres undefined) [LENALIDOMIDE]	> 5 µM

Turning to the following compound.
So, Cn1cnc2c(F)c(Nc3ccc(Br)cc3Cl)c(C(=O)NOCCO)cc21 ? Its IC50 was > 4 µM
